Origin of measurements: PubChem BioAssay (NCI)

Documented growth across a set of compounds
- Test system: UACC-257 melanoma
- PROCEDURE TEXT: NCI-60 one-dose screen, 48 h (100 = growth as untreated, 0 = no growth, -100 = all killed)
- APPLIED CONDITIONS: 10 µM unless noted
This is part of a sample that, as a whole, favours compounds with a hit. Of some 83,000 tested, about 20% had one in any assay.
State the answer as a number, implicitly in %.

>>> numeric_readout("COc1cc(C2=NN(c3ccccc3)C(c3sc(N(CCCl)CCCl)nc3Cl)C2)cc(OC)c1OC (stereo not drawn)")
87.4
>>> numeric_readout("C[C@@H]1CC[C@@H]2[C@@H]1[C@H](OC(=O)/C=C/C1CCCCC1)[C@]1(C3CCCCC3)C[C@@H](OC(=O)CO)[C@@]2(C)O1")
61.7
>>> numeric_readout("CC1(C)N=C(N)N=C(N)N1c1ccc(CNC(=O)Nc2ccc(S(=O)(=O)F)c(Cl)c2)c(Cl)c1")
23
>>> numeric_readout("Cc1cccc(N(C)c2cccc3c2C(=O)[Se]C3)c1C")
50.7
>>> numeric_readout("CC(C)[C@]12O[C@H]1[C@@H]1O[C@]13[C@]1(O[C@H]1C[C@H]1C4=C(CC[C@@]13C)C(=O)OC4)[C@@H]2OC(=O)OC(C)(C)C")
-7.48

Quick one: growth of N#CC1c2ccccc2C=CN1C(=O)c1ccc(N(CCCl)CCCl)cc1 (stereo not drawn) ? 81.5

# input compound: `CCCC(C)(C)c1ccc2c(c1)OC(C)(C)[C@@H]1CC=C(C)C[C@@H]21` ; wanted: its growth 93.1

I am curious: what growth value has been reported for `Cc1cc(CCl)c(C)cc1CCl` ? 62.1

Sample OC1CCCCC1N1CCC(c2ccccc2)CC1 (stereo not drawn) — what was its growth? 109

Consider the compound shown here: `C/C(=N/OC(=O)N(C)C)c1cc(Cl)ccc1Cl` What is its recorded growth? 103

# query: growth of entry `COc1cc(NCCCCCN=C(N)N)c2ncccc2c1` 79.7

For the compound `Oc1c(Br)cc(Br)cc1Br.[Cu+2]` , what growth is on record? 101

Which growth value is on record for `CC(=O)Nc1ccc(C=C2C(=O)NC(=O)NC2=O)cc1` ? 98.4

Give the measured growth of `NS(=O)(=O)c1nc[nH]c1[N+](=O)[O-]` . 119

If you can, please state the reported growth value of `OB([O][Hg][c]1ccccc1)[O][Hg][c]1ccccc1` . -98.3

Data request, read-out growth, for COc1c(O)c2c3c(c1OC)-c1ccccc1CC3N(C)CC2 (stereo not drawn) 103

Which growth is listed for Cc1ccc(C(=O)C2CN(C)CCC2(O)c2ccc(C)cc2)cc1 (stereo not drawn) ? 104

Name the recorded growth for `S=P(N1CCCCCC1)(N1CC1)N1CC1` . 106

Report growth for `CCOP(=O)(OCC)Oc1ccc(Sc2ccc(OP(=O)(OCC)OCC)cc2)cc1` please. 93.1

Given the entry `O=C(N/N=C/c1ccc(N(CCCl)CCCl)cc1)c1cc(=O)[nH]c(=O)[nH]1` , report its measured growth. 101

What value of growth has been recorded for this entry: `O=[N+]([O-])c1ccccc1N1CCNCC1` 94.4

Fill in the blank: the reported growth of CC(=O)C1CCC2C3CC=C4CC(OC(=O)Cc5ccc(N(CCCl)CCCl)cc5)CCC4(C)C3CCC12C (stereo not drawn) is ____. 116

// returns reported growth for input `CCOC(=O)C1(c2ccccc2)CCN(CC(=O)c2ccc(NC(C)=O)cc2)CC1` 104

// growth lookup, key: `COC(C)(C)CCC[C@H](C)C/C=C/C(C)=C/C(=O)OC(C)C` 101
